tested on: 5-HT2A (Homo sapiens (Human))
assay notes: 5-HT2A Gq-mediated calcium flux functional assay
Type: cell-based
measurement parameters: IA = Inactive; N=1-3; read-out: 5-HT2A-Ca2+ FLUX pEC50 (converted)
Exam item: assign MET to entries whose EC50 is below 30 nM and NOT MET to entries at or above 30 nM. Note that a value of exactly 30 nM receives NOT MET.

Some solved entries appear below for comparison.
# molecule, class assignment
records = [
    ("CCCN(CC#N)CCc1c[nH]c2c(F)cccc12", "NOT MET"),
    ("CCCN(CC)CC(=O)c1c[nH]c2ccc(F)cc12", "NOT MET"),
    ("CN(CCc1c[nH]c2ccc(F)cc12)C1CSC1", "MET"),
    ("CN1CCC(c2c[nH]c3cc(F)c(F)cc23)C1 (stereo not drawn)", "MET"),
    ("CN1CCC(c2c[nH]c3c(F)cccc23)C1 (stereo not drawn)", "MET"),
]

Read the next record carefully.
In the record for CC(CN)c1c[nH]c2ccc(F)cc12 (stereo not drawn) , is EC50 less than 30 nM? NOT MET

====

For each entry below, report its EC50 value.
tested on: 5-HT2C (Homo sapiens (Human))
Sequence (P28335 whole entry, looked up): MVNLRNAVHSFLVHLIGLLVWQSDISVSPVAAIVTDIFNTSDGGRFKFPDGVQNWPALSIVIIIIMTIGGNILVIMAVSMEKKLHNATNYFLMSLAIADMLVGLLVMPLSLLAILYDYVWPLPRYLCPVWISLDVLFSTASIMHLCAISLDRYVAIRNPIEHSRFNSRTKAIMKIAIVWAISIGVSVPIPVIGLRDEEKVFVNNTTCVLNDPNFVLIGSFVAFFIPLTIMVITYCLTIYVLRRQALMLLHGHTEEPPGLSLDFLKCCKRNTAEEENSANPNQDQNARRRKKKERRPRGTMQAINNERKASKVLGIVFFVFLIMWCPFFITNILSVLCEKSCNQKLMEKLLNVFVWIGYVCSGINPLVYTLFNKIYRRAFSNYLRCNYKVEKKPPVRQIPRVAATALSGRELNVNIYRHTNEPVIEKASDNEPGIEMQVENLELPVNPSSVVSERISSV
assay notes: 5-HT2C Gq-mediated calcium flux functional assay
Format: cell-based
Answers are plain numbers, in nM.

The examples below pair each entry with its known result.
# compound, tested on, property name, recorded result
data = [
    ("CCCN(CCc1c[nH]c2ccc(F)cc12)C(C)CC (centres unmarked)", "5-HT2C (Homo sapiens (Human))", "EC50", 50.1),
    ("CCCN(C)CCc1c[nH]c2ccc(F)cc12", "5-HT2C (Homo sapiens (Human))", "EC50", 1.51),
    ("CCC(C)N(C)CCc1c[nH]c2ccc(F)cc12 (centres unmarked)", "5-HT2C (Homo sapiens (Human))", "EC50", 49),
    ("CCCN(CCc1c[nH]c2ccc(F)cc12)C(C)C", "5-HT2C (Homo sapiens (Human))", "EC50", 9.12),
    ("CCCN(CCc1c[nH]c2ccc(F)cc12)C1CCC1", "5-HT2C (Homo sapiens (Human))", "EC50", 19.1),
    ("C=CCN(C)CCc1c[nH]c2ccc(F)cc12", "5-HT2C (Homo sapiens (Human))", "EC50", 3.02),
    ("CCN(C)CCc1c[nH]c2ccc(F)cc12", "5-HT2C (Homo sapiens (Human))", "EC50", 1.58),
    ("CC(C)N(CCc1c[nH]c2ccc(F)cc12)C1CCC1", "5-HT2C (Homo sapiens (Human))", "EC50", 112),
    ("CCCN(CC)CCc1c[nH]c2c(F)cc(C)cc12", "5-HT2C (Homo sapiens (Human))", "EC50", 200),
    ("Fc1ccc2[nH]cc(CCN(C3CCC3)C3CC3)c2c1", "5-HT2C (Homo sapiens (Human))", "EC50", 302),
]

Now consider the entry below.
Fill in EC50 for record CCN(C)CCc1c[nH]c2c(F)c(F)c(F)cc12 18.6

====

For each entry below, report its log10 EC50 value.
tested on: 5-HT2A (Homo sapiens (Human), UniProt P28223)
assay notes: 5-HT2A Gq-mediated calcium flux functional assay
Assay type: cell-based
Log scale reminder: EC50 in nM, then log10 taken.

The examples below pair each entry with its known result.
# molecule, recorded result
data = [
    ("CCCN(CC)CCc1c[nH]c2c(F)c(F)ccc12", 1.02),
    ("CC(C)N(C)CCc1c[nH]c2ccc(F)cc12", 0.29),
]

Your task in this section: give log10 EC50 for each listed record.
1. CCN(CCc1c[nH]c2ccc(F)cc12)C1CCC1
2. C=CC(C)N(C)CCc1c[nH]c2ccc(F)cc12 (stereo not shown)
3. CCN(C)CCc1c[nH]c2cc(C)c(F)cc12
4. CCCN(CC)CCc1c[nH]c2c(F)cc(C)cc12
5. CCC(C)N(CC)CCc1c[nH]c2ccc(F)cc12 (stereo not shown)
6. CCCN(CCc1c[nH]c2ccc(F)cc12)C1CCC1

1. 0.31
2. 0.73
3. 0.83
4. 1.26
5. 0.39
6. -0.31

Your task in this section: give log10 EC50 for each listed record.
1. CCN(C)CCc1c[nH]c2c(F)cc(OC)cc12
2. CN1CCC[C@H]1Cc1c[nH]c2ccc(F)cc12

1. 0.29
2. 1.77

Your task in this section: give log10 EC50 for each listed record.
1. CCN(C)CCc1c[nH]c2ccc(F)cc12
2. Fc1ccc2[nH]cc(CCN(C3CCC3)C3CC3)c2c1
3. CCCN(CCc1c[nH]c2ccc(F)cc12)C(C)C

1: 0.24; 2: 0.86; 3: -0.33

Your task in this section: give log10 EC50 for each listed record.
1. CCCN(CCc1c[nH]c2ccc(F)cc12)C(C)CC (stereo not shown)
2. C=CCN(CCc1c[nH]c2ccc(F)cc12)C(C)C
3. C#CCN(CCC)CCc1c[nH]c2c(F)cccc12
4. CCCN(C)CCc1c[nH]c2ccc(F)cc12
5. CCC(C)N(CCc1c[nH]c2ccc(F)cc12)C1CC1 (stereo not shown)
6. C=CCN(CCc1c[nH]c2ccc(F)cc12)C(C)CC (stereo not shown)
7. CCN(C)CCc1c[nH]c2cc(F)c(Cl)cc12
8. CC(C)N(CCc1c[nH]c2ccc(F)cc12)C1CCC1

[-0.05, -0.21, 1.90, 0.20, 0.60, -0.06, 1.03, -0.05]

Fill in log10 EC50 for record CCN(CCc1c[nH]c2ccc(F)cc12)C(C)C 0.13

Cited source for all entries: patent US20240286998A1
